Ref: PubChem BioAssay (NCI)

Quick reference: TGI of the listed items.
# Test system: IGROV1 ovarian
# method.notes: NCI tumour cell line growth inhibition, 48 h
Give a bare numeral; the unit µM is implied.

>  <chem.smiles>
Oc1ccc(-c2nc(-c3cccnc3)c(-c3ccc(Cl)cc3)[nH]2)cc1O

>  <system.name>
IGROV1 ovarian

>  <value.units>
µM

>  <TGI>
18.6

$$$$

Now turn to the next molecule.
Please supply the value of reported TGI for the item CCC[CH2][Sn]([CH2]CCC)([CH2]CCC)[O]c1ccc(Cl)cc1Cl
0.223

----------
# System: LOX IMVI melanoma
# method.notes: NCI tumour cell line growth inhibition, 48 h
readout.label: TGI (µM)
Give a bare numeral; the unit µM is implied.

Take a look at these entries with their results.
>  <molecule>
CC(C)/C(Cl)=N\OC(=O)Nc1ccccc1F

>  <TGI / µM>
6.92

$$$$
>  <molecule>
CC(C)CC(NC(=O)c1cccc(O)c1O)C(=O)NCc1cc(CNC(=O)C(CC(C)C)NC(=O)c2cccc(O)c2O)cc(CNC(=O)C(CC(C)C)NC(=O)c2cccc(O)c2O)c1 (stereo not given)

>  <TGI / µM>
25.6

$$$$
>  <molecule>
C=C1C(=O)O[C@H]2C[C@@H]1CC/C(C)=C/CC/C(C)=C/CC[C@H]2C

>  <TGI / µM>
12.3

$$$$

Please supply the value of reported TGI for the item CCCCC(C#N)(OP1(=O)OC(c2ccccc2)C(C)N1C)c1ccccc1 (stereo not given)
36.7

----------
# System: OVCAR-8 ovarian
# method.notes: NCI tumour cell line growth inhibition, 48 h
readout.label: GI50

Take a look at these entries with their results.
>  <chem.smiles>
CN[C@H]1C=C[C@@H]2/C=C(C)/C=C/[C@@H](C)[C@H]([C@H](C)[C@H](O)[C@@H](C)NC(C)=O)OC(=O)/C=C/C=C(C)\C=C\[C@]2(C)C1

>  <observed.result>
9.22 nM

$$$$
>  <chem.smiles>
O=S(=O)(Nc1ccccc1Cl)c1ccc(-c2cnc(C3CC3)o2)cc1

>  <observed.result>
1220 nM

$$$$
>  <chem.smiles>
COC(=O)[C@@H](C)C[C@H](Cc1ccccc1)NC(=O)c1csc(CC[C@H](C(C)C)N(C)C(=O)[C@@H](NC(=O)[C@H]2CCCCN2C)C(C)C)n1

>  <observed.result>
465 nM

$$$$
>  <chem.smiles>
CC(=O)[O][Ga]([Cl])[O]C(C)=O

>  <observed.result>
> 100000 nM

$$$$
>  <chem.smiles>
Clc1nc(Cl)c2ncn(Cc3cccc(Cn4cnc5c(Cl)nc(Cl)nc54)c3)c2n1

>  <observed.result>
4670 nM

$$$$

Please supply the value of reported GI50 for the item CCOC(=O)N1CCN(c2nc(Nc3cc(C)[nH]n3)c3ccccc3n2)CC1
8630 nM

Please supply the value of reported GI50 for the item [Cl][Hg][Cl]
21600 nM

Please supply the value of reported GI50 for the item CC(C)(C)C(=O)c1c(C(F)(F)F)n([O-])c2ccccc2[n+]1=O
254 nM

Please supply the value of reported GI50 for the item COc1ccc(-c2cn[nH]c2-c2cc(OC)c3c(c2)OCO3)cc1
423 nM

Please supply the value of reported GI50 for the item CN(C)CCCNC(=O)c1cc(NC(=O)c2cc(NC(=O)CCc3c[nH]c4ccccc34)cn2C)cn1C
> 100000 nM

Please supply the value of reported GI50 for the item Cc1cc(S(=O)(=O)Nc2nc3cscc3c(=O)n2Cc2ccccc2)c(S)cc1Cl
55700 nM

Please supply the value of reported GI50 for the item COc1cc(NC(N)=NCCC(C)(C)Oc2ccc(C(F)(F)F)cc2)ncc1C#N
1790 nM
